- System: ATP;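 note: ATP exposure 15 min at 22 °C before imaging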
- method_summary: switch fluorescence ratio, 500 uM ATP over buffer (Cy3 cluster intensity, sum of 5 cycles each) (fold (ratio)); higher = stronger signal-on switching upon ATP binding; sequences stand for … in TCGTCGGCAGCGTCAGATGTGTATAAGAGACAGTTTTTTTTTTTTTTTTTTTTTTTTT…TC
- measurement_conditions: aptamer strand: ATP DNA aptamer (quencher-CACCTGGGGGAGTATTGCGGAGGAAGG + anchor), 100 nM annealed; ATP concentration: 500 uM
Entries and their measured switch fluorescence ratio follow.

Examples from the recorded data:
- sequence_entry: "AGCTCTAAAT"
  target_or_system: "ATP"
  result_type: "switch fluorescence ratio"
  result: 1.04
- sequence_entry: "CGTTCTAGTT"
  target_or_system: "ATP"
  result_type: "switch fluorescence ratio"
  result: 1
- sequence_entry: "TGTATCTCTG"
  target_or_system: "ATP"
  result_type: "switch fluorescence ratio"
  result: 1.02
- sequence_entry: "CATGCATGTT"
  target_or_system: "ATP"
  result_type: "switch fluorescence ratio"
  result: 1.01
- sequence_entry: "CCGTTGGGGG"
  target_or_system: "ATP"
  result_type: "switch fluorescence ratio"
  result: 1.01
- sequence_entry: "AAGGGCGGAT"
  target_or_system: "ATP"
  result_type: "switch fluorescence ratio"
  result: 1.02

Q: What is its switch fluorescence ratio for ATP? Entry: TTATAGGTTG
A: 0.984

Q: What is its switch fluorescence ratio for ATP? Entry: TCATCCTAGC
A: 1.19

Q: What is its switch fluorescence ratio for ATP? Entry: GGGAATAACT
A: 0.998

Q: What is its switch fluorescence ratio for ATP? Entry: TGAGTCTAG
A: 0.997

Q: What is its switch fluorescence ratio for ATP? Entry: ATTCTGGTGG
A: 1.01

Q: What is its switch fluorescence ratio for ATP? Entry: ACCAAGCCAT
A: 1.09

Q: What is its switch fluorescence ratio for ATP? Entry: GGTTGCTGCC
A: 0.992

Q: What is its switch fluorescence ratio for ATP? Entry: TGTTGAGGGG
A: 0.964

Q: What is its switch fluorescence ratio for ATP? Entry: TTCCGGTTGG
A: 1

Q: What is its switch fluorescence ratio for ATP? Entry: GAAAGTTAAA
A: 1.04

Q: What is its switch fluorescence ratio for ATP? Entry: TTTTTGTGAC
A: 0.999

Q: What is its switch fluorescence ratio for ATP? Entry: GGATCACTTA
A: 1.02

Q: What is its switch fluorescence ratio for ATP? Entry: GTTGGGACGG
A: 0.957

Q: What is its switch fluorescence ratio for ATP? Entry: AAAGCGGTAT
A: 1.04

Q: What is its switch fluorescence ratio for ATP? Entry: GGAATTATTG
A: 1.08

---

- Tested on: ATP;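 note: ATP exposure 15 min at 22 °C before imaging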
- method_summary: switch fluorescence ratio, 500 uM ATP over buffer (Cy3 cluster intensity, sum of 5 cycles each) (fold (ratio)); higher = stronger signal-on switching upon ATP binding; sequences stand for … in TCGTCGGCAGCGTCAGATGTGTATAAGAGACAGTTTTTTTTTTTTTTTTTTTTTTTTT…TC
- measurement_conditions: aptamer strand: ATP DNA aptamer (quencher-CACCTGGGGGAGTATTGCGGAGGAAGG + anchor), 100 nM annealed; ATP concentration: 500 uM
Entries and their measured switch fluorescence ratio follow.
Note: the reply should be a number with no unit written.

Examples from the recorded data:
- sequence_entry: "ATCAGTTCCT"
  recorded_number: 1.04
- sequence_entry: "TCTTGGGGGG"
  recorded_number: 1
- sequence_entry: "GAGAGGCACA"
  recorded_number: 1.02
- sequence_entry: "ACACTTTCG"
  recorded_number: 1.02
- sequence_entry: "GAGCTTGCTG"
  recorded_number: 0.999

Q: I would be grateful if you could share the reported switch fluorescence ratio for GGAACGGGGA .
A: 1.01

Q: I would be grateful if you could share the reported switch fluorescence ratio for AGGCAAAGGG .
A: 0.995

Q: I would be grateful if you could share the reported switch fluorescence ratio for CATTATTATG .
A: 1.03

Q: I would be grateful if you could share the reported switch fluorescence ratio for TGAAAAAAAC .
A: 0.987

Q: I would be grateful if you could share the reported switch fluorescence ratio for TTTCATTCGG .
A: 1.06

Q: I would be grateful if you could share the reported switch fluorescence ratio for TTTAAATAAC .
A: 1.02

Q: I would be grateful if you could share the reported switch fluorescence ratio for AAAGTATTTG .
A: 1.01

Q: I would be grateful if you could share the reported switch fluorescence ratio for TAAAAAGGAC .
A: 0.981

Q: I would be grateful if you could share the reported switch fluorescence ratio for GGAGGGGGCG .
A: 0.999

Q: I would be grateful if you could share the reported switch fluorescence ratio for TTTTAGGCCG .
A: 1.03

Q: I would be grateful if you could share the reported switch fluorescence ratio for CTGGGGTGGA .
A: 1.01

Q: I would be grateful if you could share the reported switch fluorescence ratio for TCCAGATAGG .
A: 0.997

Q: I would be grateful if you could share the reported switch fluorescence ratio for AGGTTTAGTA .
A: 1.02

Q: I would be grateful if you could share the reported switch fluorescence ratio for GTGTGGGGCT .
A: 1

Q: I would be grateful if you could share the reported switch fluorescence ratio for GTCAATTTGT .
A: 1.02

---

Entries and their measured switch fluorescence ratio follow.
- Tested on: ATP;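 note: ATP exposure 15 min at 22 °C before imaging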
- method_summary: switch fluorescence ratio, 500 uM ATP over buffer (Cy3 cluster intensity, sum of 5 cycles each) (fold (ratio)); higher = stronger signal-on switching upon ATP binding; sequences stand for … in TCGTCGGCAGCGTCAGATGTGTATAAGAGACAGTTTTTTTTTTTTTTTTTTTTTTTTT…TC
- measurement_conditions: aptamer strand: ATP DNA aptamer (quencher-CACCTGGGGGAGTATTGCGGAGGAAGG + anchor), 100 nM annealed; ATP concentration: 500 uM
Note: the reply should be a number with no unit written.

- sequence_entry: "GAGAGGATGG"
  recorded_number: 0.984

Q: I would be grateful if you could share the reported switch fluorescence ratio for ACACTAGGGC .
A: 1.04

Q: I would be grateful if you could share the reported switch fluorescence ratio for AAAATATGG .
A: 0.997

Q: I would be grateful if you could share the reported switch fluorescence ratio for GTGTTTAAGC .
A: 0.978

Q: I would be grateful if you could share the reported switch fluorescence ratio for ACAGTTTTCT .
A: 1.01

Q: I would be grateful if you could share the reported switch fluorescence ratio for ATGCTGGGTC .
A: 0.973

---

- Tested on: ATP;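 note: ATP exposure 15 min at 22 °C before imaging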
- method_summary: switch fluorescence ratio, 500 uM ATP over buffer (Cy3 cluster intensity, sum of 5 cycles each) (fold (ratio)); higher = stronger signal-on switching upon ATP binding; sequences stand for … in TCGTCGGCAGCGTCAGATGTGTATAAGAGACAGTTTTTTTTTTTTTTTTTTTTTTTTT…TC
- measurement_conditions: aptamer strand: ATP DNA aptamer (quencher-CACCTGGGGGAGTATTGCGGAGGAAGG + anchor), 100 nM annealed; ATP concentration: 500 uM
result_type: switch fluorescence ratio
Note: the reply should be a number with no unit written.

Examples from the recorded data:
- sequence_entry: "AGTTGAGAGA"
  recorded_number: 1.01
- sequence_entry: "CGGGCAGGGC"
  recorded_number: 1.04
- sequence_entry: "TCATGGGAGA"
  recorded_number: 0.984
- sequence_entry: "GGGGTACGCG"
  recorded_number: 0.984
- sequence_entry: "TAAGAGGATC"
  recorded_number: 1.01

Okay, next one:
Q: I would be grateful if you could share the reported switch fluorescence ratio for TTGGTGCTGG .
A: 1.01

---

Entries and their measured switch fluorescence ratio follow.
- System: ATP;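 note: ATP exposure 15 min at 22 °C before imaging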
- method_summary: switch fluorescence ratio, 500 uM ATP over buffer (Cy3 cluster intensity, sum of 5 cycles each) (fold (ratio)); higher = stronger signal-on switching upon ATP binding; sequences stand for … in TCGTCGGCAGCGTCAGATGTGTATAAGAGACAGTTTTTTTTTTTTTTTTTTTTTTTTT…TC
- measurement_conditions: aptamer strand: ATP DNA aptamer (quencher-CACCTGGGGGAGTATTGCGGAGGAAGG + anchor), 100 nM annealed; ATP concentration: 500 uM
Note: the reply should be a number with no unit written.

Examples from the recorded data:
- sequence_entry: "TGGGCGAACG"
  switch fluorescence ratio: 0.963
- sequence_entry: "AGGCGTTCTG"
  switch fluorescence ratio: 0.991

Okay, next one:
Q: I would be grateful if you could share the reported switch fluorescence ratio for TCGAAAAGGG .
A: 0.992

---

Entries and their measured switch fluorescence ratio follow.
- Tested on: ATP;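 note: ATP exposure 15 min at 22 °C before imaging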
- method_summary: switch fluorescence ratio, 500 uM ATP over buffer (Cy3 cluster intensity, sum of 5 cycles each) (fold (ratio)); higher = stronger signal-on switching upon ATP binding; sequences stand for … in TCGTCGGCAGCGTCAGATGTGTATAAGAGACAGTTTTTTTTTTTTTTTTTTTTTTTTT…TC
- measurement_conditions: aptamer strand: ATP DNA aptamer (quencher-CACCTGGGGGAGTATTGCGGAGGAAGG + anchor), 100 nM annealed; ATP concentration: 500 uM

Examples from the recorded data:
- sequence_entry: "ACATTGGCGG"
  target_or_system: "ATP"
  switch fluorescence ratio: 0.993
- sequence_entry: "GAAAAGGGGT"
  target_or_system: "ATP"
  switch fluorescence ratio: 1
- sequence_entry: "AGAGGGAGAT"
  target_or_system: "ATP"
  switch fluorescence ratio: 0.988
- sequence_entry: "ACGCGGACGG"
  target_or_system: "ATP"
  switch fluorescence ratio: 1.05
- sequence_entry: "TCGAGGGAAC"
  target_or_system: "ATP"
  switch fluorescence ratio: 1.03
- sequence_entry: "AAGACTCTGG"
  target_or_system: "ATP"
  switch fluorescence ratio: 0.973

Okay, next one:
Q: What is its switch fluorescence ratio for ATP? Entry: TATGTTTAAT
A: 0.994
